# subject-of-test: T1, K48-Ub2 (Homo sapiens, UniProt P0CG47, K48R)
# T1 construct: Ub and K48- and K63-linked diUb and tetraUb were made as described; made in house
# protocol: Fluorescence anisotropy binding of fluorescent tUIM peptides to K48-Ub2
# experimental-context: single-site fit, 25° C., pH 7.4
Please provide measured Kd for the entries that follow.
Write the number in µM without appending the unit.

Input line: Can you share its Kd? I mean this molecule: Rap80 2 x linker: Rap80 tUIM peptide with 14-residue linker REVNSQEREVNSQE (protein) peptide: PSSHHHHHHSSGLVPRGSHMTEEEQFALALKMSEQEAREVNSQEREVNSQEEEEEELLRKAIAESLNSCRPS
Output line: 170

Input line: What do we get for Vps27 7aa linker: Vps27 UIMs connected with 7-residue linker RAEEKVK (protein) peptide: PSSHHHHHHSSGLVPRGSHMEEEEDPDLKAAIQESLREARAEEKVKEDEEELIRKAIELSLKESRNCA ?
Output line: 98

Input line: What do we get for Vps27 (WT): yeast Vps27 tandem UIM peptide with unstructured 25-residue linker (protein) peptide: PSSHHHHHHSSGLVPRGSHMDRDYSTPEDEEELIRKAIELSLKESRNSASSEPIVPVVESKNEVKRQEIEEEEDPDLKAAIQESLREAEEAKLRSERQKAC ?
Output line: 211

Input line: What do we get for Rap80 S101A: Rap80 tUIM peptide, linker REVNAQE (protein) peptide: PSSHHHHHHSSGLVPRGSHMTEEEQFALALKMSEQEAREVNAQEEEEEELLRKAIAESLNSCRPS ?
Output line: 152

Input line: What do we get for Rap80 S101E: Rap80 tUIM peptide, linker REVNEQE (protein) peptide: PSSHHHHHHSSGLVPRGSHMTEEEQFALALKMSEQEAREVNEQEEEEEELLRKAIAESLNSCRPS ?
Output line: 170

Input line: What do we get for Rap80 ARLEEKV: Rap80 tUIM peptide, linker ARLEEKV (protein) peptide: PSSHHHHHHSSGLVPRGSHMTEEEQFALALKMSEQEAARLEEKVEEEEELLRKAIAESLNSCRPS ?
Output line: 230

Input line: What do we get for Rap80 7A linker: Rap80 UIMs linked by 7 alanine residues (protein) peptide: PSSHHHHHHSSGLVPRGSHMTEEEQFALALKMSEQEAAAAAAAAEEEEELLRKAIAESLNSCRPS ?
Output line: 160
